Where do these numbers come from? They come from the NIST ThermoML archive (doi:10.1021/je900730w).

Test: refractive index (Na D-line) (dimensionless)
Conditions: 293.15 K; 101.33 kPa; Liquid; Standard Abbe refractometry
Kindly supply the reported refractive index values for the records listed here.
Field format: numeric only.

Lookup: Report refractive index for Cc1ccccc1 please.
Found: 1.4967

Lookup: Field entry: CCOCCO
Found: 1.4065

Lookup: Also check CC(C)=O
Found: 1.359

Lookup: Please do the same for CO as well.
Found: 1.3301

Lookup: Another compound to look at: CCO
Found: 1.366

====

Details: 293.15 K; 101.33 kPa; Liquid; Vibrating tube method
Provide the recorded mass density for the entries that follow.
Numeric only. Scale: kg/m3

Lookup: Given the molecule CCOCCO , what is its reported mass density?
Found: 929

Lookup: Entry CC(C)=O please
Found: 790

Lookup: And what about the molecule CCO ?
Found: 790

Lookup: Subsequent entry: Cc1ccccc1
Found: 866
